Entry source: PubChem BioAssay (NCI)

- System: CCRF-CEM leukemia
- assay name: NCI tumour cell line growth inhibition, 48 h
experimental endpoint: TGI

molecule="COc1ccc(CNc2ccn(C3OC(CO)C(O)C3O)c(=O)n2)cc1 (stereo not given)" assay_value="> 100 µM"
molecule="CC(=O)C(C(=O)c1ccc(C)cc1)[C@@H]1OC(C)(C)O[C@@H]1[C@H]1COC(C)(C)O1 (stereo not given in full)" assay_value="> 36.2 µM"
molecule=Nc1ccc(/C=C/c2ccnc3ccccc23)cc1 assay_value="40.7 µM"
molecule=CCOC(=O)/C(C#N)=C/Nc1c(C)n(C)n(-c2ccccc2)c1=O assay_value="> 100 µM"
molecule="CCOC1=NC(=O)CC(c2ccccc2)S1 (stereo not given)" assay_value="> 100 µM"
molecule="CCCCCCCCCCCCCC1CCC(CC)N1 (stereo not given)" assay_value="18.2 µM"
molecule=O=C(O)c1cccc(Nc2c(C(=O)O)cccc2[N+](=O)[O-])c1 assay_value="> 100 µM"
molecule="COc1ccc(CC2Cc3ccccc3CCN2)cc1OC (stereo not given)" assay_value="> 50 µM"
molecule=N#Cc1ccc(NC(=NCC(=O)O)Nc2cccc3ccccc23)cc1 assay_value="> 10 µM"
molecule=COc1cc2oc(-c3ccc(O)cc3)cc(=O)c2c(OC)c1OC assay_value="> 100 µM"

Please go through the list and note TGI for each molecule.
1. NC(=O)NC1NC(=O)NC1=O (stereo not given)
2. COc1cc(C(=O)NNC(=O)c2cc(Br)ccc2NC(=O)c2cccs2)cc(OC)c1OC
3. O=C1CC(Br)c2c(Br)sc(Br)c21 (stereo not given)
4. O=C(O)CC1OCC=C2CN3CCC45c6ccccc6NC4C1C2CC35 (stereo not given)
5. CC(NC(=O)OCc1ccccc1)NC(=O)OC(C)(C)C (stereo not given)
6. COC(=O)C1C2OC(C)(C)OC2CN1S(=O)(=O)c1ccc(C)cc1 (stereo not given)
7. COC(=O)Nc1nc2ccc(Oc3ccc(NC(=O)Nc4ccccc4)cc3)cc2[nH]1

["> 100 µM", "> 100 µM", "9.42 µM", "> 100 µM", "> 100 µM", "> 100 µM", "> 8.59 µM"]

Please go through the list and note TGI for each molecule.
1. Cc1cccc(N/C(=C(/C(Cl)=C(Cl)Cl)[N+](=O)[O-])n2nnc3ccccc32)c1
2. Cc1cc(S(=O)(=O)Nc2nc(N)nc(N3N=CCC3C)n2)c(SCC(=O)O)cc1Cl (stereo not given)
3. CCCCCCCC(CC(=O)NC(CO)C(=O)NC(CO)CC(C)C)OC(=O)CC(CCCCCCC)OC(=O)CC(CCCCCCC)OC1OC(C)C(O)C(OC2OC(C)C(O)C(OC(C)=O)C2O)C1O (stereo not given)
4. NC(N)=NCCCn1c2c(c3ccccc3c1=O)C(=O)c1ccccc1-2
5. COc1ccc(OC)c(/C=C/C(=O)N/N=C/c2ccc(Cl)cc2)c1
6. N=C1C(=N)c2ccccc2-c2ccccc21.[Cl-].[Ru+2].c1cnc2c(c1)ccc1cccnc12.c1cnc2c(c1)ccc1cccnc12

1. > 100 µM
2. > 10 µM
3. 21.4 µM
4. > 100 µM
5. > 100 µM
6. 74.7 µM

Please go through the list and note TGI for each molecule.
1. CC1=CC[C@H](C[C@H](C#CCCCC2OCCO2)O[Si](C(C)C)(C(C)C)C(C)C)C(=O)CC1
2. C1=C(CC2=C[P+](c3ccccc3)(c3ccccc3)C=C(c3ccccc3)O2)OC(c2ccccc2)=C[P+]1(c1ccccc1)c1ccccc1
3. CCOC(=O)CN=c1nc(SC)sc2c(C(=O)OCC)nc(Sc3ccccc3)n12
4. COC(=O)c1ccccc1/C=C1\Cc2c(ccc3c2CCC3)C1=O
5. CC12CCCC(C(=O)O)(C1)[C@H](C(C)(C)C(=O)O)CC2 (stereo not given in full)
6. O=C(CSc1ncccn1)N/N=C/c1ccccc1OCc1ccccc1
7. O=C(N/N=C/c1cccc(O)c1O)c1ccccc1
8. COC(=O)/C(C)=N/NC(=S)SC

> 100 µM
1.54 µM
> 100 µM
> 100 µM
> 100 µM
57.9 µM
> 59.7 µM
11 µM

Please go through the list and note TGI for each molecule.
1. COc1ccc(C(=O)c2cc(C)c(OC)c(C)c2)c(OC)c1N(C(=O)C(Cl)Cl)C(=O)C(Cl)Cl
2. OCC1OC(NC(=S)NCCC(F)(F)C(F)(F)C(F)(F)C(F)(F)C(F)(F)C(F)(F)F)C(O)C(O)C1O (stereo not given)
3. CN1CCC23c4c5ccc(Oc6nnnn6-c6ccccc6)c4OC2c2[nH]c4ccccc4c2CC3(O)C1C5 (stereo not given)
4. CC[C@]12C=CCN3CC[C@@]4(c5cc(Br)c(OC)c([N+](=O)[O-])c5N(C)[C@H]4[C@@](O)(C(=O)OC)[C@@H]1OC(C)=O)[C@@H]32
5. CCN(CC)c1ccc(C(=N)c2ccc(N(CC)CC)cc2)cc1
6. COc1ccc2c(c1)C=C([N+](=O)[O-])C(C1OC(C)(C)OC1C1COC(C)(C)O1)O2 (stereo not given)
7. N#Cc1nc(C2OC(COC(=O)c3ccccc3)C(OC(=O)c3ccccc3)C2OC(=O)c2ccccc2)oc1N (stereo not given)
8. CCOC(=O)CC[C@H](N)C(=O)N[C@@H](Cc1ccc(N(CCCl)CCCl)cc1)C(=O)OCC

["> 100 µM", "> 100 µM", "4.19 µM", "> 100 µM", "9.3 µM", "4.2 µM", "34.6 µM", "4.5 µM"]

Please give the documented TGI of Cc1nc2ccccc2c(=O)n1NC(=O)c1ccccn1
> 100 µM
